Attribution: patent US8178528B2

Measurement record for H3R membranes (H3R8-expressing HEK293 cell line) (Homo sapiens, UniProt Q9Y5N1); quantity recorded: Ki.
assayReadout: Ki (nM)

lineNotation: O=C(c1ccc(C2CCCCC2)cc1)N1CCC[C@H]1CN1CCCC1
testTarget: H3R membranes (H3R8-expressing HEK293 cell line) (Homo sapiens, UniProt Q9Y5N1)
Sequence (Q9Y5N1 whole entry): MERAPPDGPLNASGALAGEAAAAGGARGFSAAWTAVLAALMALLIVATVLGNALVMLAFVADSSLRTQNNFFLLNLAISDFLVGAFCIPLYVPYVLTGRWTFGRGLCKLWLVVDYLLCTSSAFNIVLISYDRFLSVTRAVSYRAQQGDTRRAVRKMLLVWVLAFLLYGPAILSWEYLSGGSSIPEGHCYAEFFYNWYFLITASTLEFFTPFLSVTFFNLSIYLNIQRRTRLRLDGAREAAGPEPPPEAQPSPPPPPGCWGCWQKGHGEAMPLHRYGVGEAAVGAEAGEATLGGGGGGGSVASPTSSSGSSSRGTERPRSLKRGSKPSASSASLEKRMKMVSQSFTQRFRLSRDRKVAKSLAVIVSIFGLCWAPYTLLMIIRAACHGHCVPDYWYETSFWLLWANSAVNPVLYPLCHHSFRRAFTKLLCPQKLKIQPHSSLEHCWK
assayReadout: Ki
number: 47
//
lineNotation: O=C(c1ccc(S(=O)(=O)c2ccccc2)cc1)N1CCC[C@H]1CN1CCCC1
testTarget: H3R membranes (H3R8-expressing HEK293 cell line) (Homo sapiens, UniProt Q9Y5N1)
assayReadout: Ki
number: 12
